EXPERIMENT: In vitro plasma stability, dog plasma
Assay type: in vitro ADME
TEST SETTINGS: male, pH 7.4, 5 μM, 37° C., sampling 0-360 minutes, read-out: T1/2 Dog
half-life at 5 μM under 30 min gets class 1, anything at or over 30 min gets class 0.

## Input Identify whether the compound CN1N=C(c2ccc(S(C)(=O)=O)c(N3CCOCC3)c2)C(C)(NO)C1=O (stereo not drawn) [Compound 82] records half-life at 5 μM below 30 min.
## Output class 0

## Input I'd appreciate it if you could check whether CCO/N=C(\C)C1(NO)C(=O)NN=C1C(C)(C)C (stereo not drawn) [Compound 134] has half-life at 5 μM smaller than 30 min.
## Output class 1

## Input For this compound, is half-life at 5 μM lower than 30 min? CC(C)N1N=C(c2ccccc2F)C(C)(NO)C1=O (stereo not drawn) [Compound 26]
## Output class 0

## Input Please let me know if CN1N=C(c2ccccc2OC(F)(F)F)C(C)(NO)C1=O (stereo not drawn) [Compound 56] shows half-life at 5 μM below 30 min.
## Output class 0

## Input API: query returns whether the compound falls strictly under 30 min in half-life at 5 μM. Query: CN1N=C(c2ccc([S+](C)[O-])cc2)C(C)(NO)C1=O (stereo not drawn) [Compound 11]
## Output class 0

## Input Would you kindly verify if half-life at 5 μM of CCO/N=C(\C)C1(NO)C(=O)N(C)N=C1C(C)(C)C (stereo not drawn) [Compound 112] is strictly less than 30 min?
## Output class 1

## Input Please let me know if CN1N=C(c2ccc(S(C)(=O)=O)c(C(F)(F)F)c2)C(C)(NO)C1=O (stereo not drawn) [Compound 97] shows half-life at 5 μM below 30 min.
## Output class 0

## Input half-life at 5 μM strictly < 30 min for this compound? CO/N=C(\C)C1(NO)C(=O)N(C)N=C1c1ccc(C(F)(F)F)cc1 (stereo not drawn) [Compound 52]
## Output class 1

---

Can you tell me half-life at 5 μM for the items I'm about to list?
EXPERIMENT: In vitro plasma stability, rat plasma
Type: in vitro ADME
TEST SETTINGS: male, pH 7.4, 5 μM, 37° C., sampling 0-360 minutes, read-out: T1/2 Rat

## Input Report half-life at 5 μM for CN1N=C(c2ccc(C(F)(F)F)cc2)C(C)(NO)C1=O (stereo not shown) [Compound 4] please.
## Output 38 min

## Input # input compound: CN1N=C(c2ccc(S(C)(=O)=O)cc2)C(C)(NO)C1=O (stereo not shown) [Compound 14] ; wanted: its half-life at 5 μM
## Output 40 min

## Input What measured half-life at 5 μM goes with CCO/N=C(\C)C1(NO)C(=O)N(C)N=C1C(C)(C)C (stereo not shown) [Compound 112] ?
## Output 19 min

## Input Please look up its half-life at 5 μM: CN1CCN(c2cc(C3=NN(C)C(=O)C3(C)NO)ccc2S(C)(=O)=O)CC1 (stereo not shown) [Compound 88]
## Output 65 min

## Input half-life at 5 μM lookup needed for CN(C)C(=O)c1ccc(C2(NO)C(=O)N(C)N=C2C(C)(C)C)cc1 (stereo not shown) [Compound 124] , thanks.
## Output 44 min

## Input Dear colleague, I am looking for the recorded half-life at 5 μM of the following compound: CN1N=C(c2ccc(S(C)(=O)=O)c(N3CCNCC3)c2)C(C)(NO)C1=O (stereo not shown) [Compound 93]
## Output 66 min

## Input What does the record list as half-life at 5 μM for COCCN(C)c1cc(C2=NN(C)C(=O)C2(C)NO)ccc1S(C)(=O)=O (stereo not shown) [Compound 83] ?
## Output 89 min

## Input half-life at 5 μM for CN1N=C(c2ccc(S(C)(=O)=O)c(N3CCOCC3)c2)C(C)(NO)C1=O (stereo not shown) [Compound 82] ?
## Output 69 min

## Input // lookup half-life at 5 μM for CC(C)N1N=C(c2ccc(S(C)(=O)=O)cc2)C(C)(NO)C1=O (stereo not shown) [Compound 32]
## Output 64 min

## Input Tell me the measured half-life at 5 μM of CC(C)S(=O)(=O)c1ccc(C2=NN(C)C(=O)C2(C)NO)cc1 (stereo not shown) [Compound 78] , please.
## Output 75 min

## Input What does the data say about its half-life at 5 μM? Entry: CN1N=C(c2ccc(C(=O)N3CCC(F)(F)CC3)cc2)C(C)(NO)C1=O (stereo not shown) [Compound 85]
## Output 125 min

## Input Report half-life at 5 μM for CN1N=C(c2ccc(S(C)(=O)=O)c(Cl)c2)C(C)(NO)C1=O (stereo not shown) [Compound 70] please.
## Output 43 min

## Input Which measured half-life at 5 μM value corresponds to CN1N=C(c2ccc(S(=O)(=O)N(C)C)cc2)C(C)(NO)C1=O (stereo not shown) [Compound 49] ?
## Output 70 min

## Input Given the entry CN1N=C(c2ccc(C(N)=O)cc2)C(C)(NO)C1=O (stereo not shown) [Compound 92] , report its measured half-life at 5 μM.
## Output 270 min

## Input Please give the measured half-life at 5 μM for this compound: CCS(=O)(=O)c1ccc(C2=NN(C)C(=O)C2(C)NO)cc1 (stereo not shown) [Compound 86]
## Output 61 min

## Input Can you look up the measured half-life at 5 μM of CN1N=C(c2ccc(Br)cc2)C(C)(NO)C1=O (stereo not shown) [Compound 108] for me?
## Output 89 min

## Input Given CN1N=C(c2ccc([S+](C)[O-])c(F)c2)C(C)(NO)C1=O (stereo not shown) [Compound 38] , state its recorded half-life at 5 μM.
## Output 54 min

## Input # query: half-life at 5 μM of entry COc1ccc(C2(NO)C(=O)N(C)N=C2C)cc1OC (stereo not shown) [Compound 73]
## Output 18 min

## Input // query half-life at 5 μM value for entry CN1N=C(c2ccc(S(=O)(=O)N3CCC(F)(F)CC3)cc2)C(C)(NO)C1=O (stereo not shown) [Compound 114]
## Output 49 min

## Input Look up half-life at 5 μM: C/C(=N\OC(C)(C)C)C1(NO)C(=O)N(C)N=C1C(C)(C)C (stereo not shown) [Compound 117]
## Output 36 min

## Input Using the record for CO/N=C(\C)C1(NO)C(=O)N(C)N=C1c1ccc(C(=O)N(C)C)cc1 (stereo not shown) [Compound 123] , report its half-life at 5 μM.
## Output 11 min

## Input Look at this compound and give its reported half-life at 5 μM. CC1=NN(C)C(=O)C1(NO)c1ccc(F)cc1 (stereo not shown) [Compound 27]
## Output 19 min

## Input For the compound CN1N=C(c2ccccc2)C(C)(NO)C1=O (stereo not shown) [Compound 15] , what half-life at 5 μM is on record?
## Output 67 min

## Input Would you mind telling me what half-life at 5 μM value was observed for CCO/N=C(\C)C1(NO)C(=O)N(C)N=C1C (stereo not shown) [Compound 106] ?
## Output 7 min

## Input half-life at 5 μM lookup needed for COCCN(C)S(=O)(=O)c1ccc(C2=NN(C)C(=O)C2(C)NO)cc1 (stereo not shown) [Compound 90] , thanks.
## Output 72 min

## Input Need half-life at 5 μM of CC1(NO)C(=O)NN=C1c1ccc(S(C)(=O)=O)cc1 (stereo not shown) [Compound 133] , thanks.
## Output 116 min

## Input Given the compound CN1N=C(c2ccc(S(=O)(=O)c3ccccc3)cc2)C(C)(NO)C1=O (stereo not shown) [Compound 89] , what is its reported half-life at 5 μM?
## Output 36 min

## Input Need half-life at 5 μM, item CO/N=C(\C)C1(NO)C(=O)N(c2ccccc2)N=C1[S+]([O-])c1ccccc1 (stereo not shown) [Compound 130]
## Output < 1 min

## Input Which half-life at 5 μM reading was recorded for the compound CO/N=C(\C)C1(NO)C(=O)N(C)N=C1c1ccc(OC)cc1 (stereo not shown) [Compound 107] ?
## Output 49 min

## Input I have this compound here, CC1=NN(c2ccccc2)C(=O)C1(NO)c1ccccc1 (stereo not shown) [Compound 24] , and I need its recorded half-life at 5 μM.
## Output 10 min

## Input Which half-life at 5 μM value belongs to CN1N=C(c2cccc(S(C)(=O)=O)c2)C(C)(NO)C1=O (stereo not shown) [Compound 48] ?
## Output 53 min

## Input If you can, please state the reported half-life at 5 μM value of CO/N=C(\C)C1(NO)C(=O)N(C)N=C1c1ccccc1 (stereo not shown) [Compound 46] .
## Output 9 min

## Input Field request: half-life at 5 μM | item: CN1N=C(c2ccc(Cl)cc2)C(C)(NO)C1=O (stereo not shown) [Compound 1]
## Output 80 min

## Input So what does the record say about half-life at 5 μM for C[C@H](NC(=O)c1ccc(C2=NN(C)C(=O)C2(C)NO)cc1)C(=O)O (stereo partly shown) [Compound 94] ?
## Output 191 min

## Input Fill in: half-life at 5 μM of CC1=NN(C)C(=O)C1(NO)c1noc(-c2ccccc2)n1 (stereo not shown) [Compound 132] is ___
## Output < 1 min

## Input Please report the recorded half-life at 5 μM for CN1N=C(c2ccc(C(=O)N3CCOCC3)cc2)C(C)(NO)C1=O (stereo not shown) [Compound 81] .
## Output 148 min

## Input Report half-life at 5 μM for C/C(=N\OCc1ccccc1)C1(NO)C(=O)N(C)N=C1C(C)(C)C (stereo not shown) [Compound 115] please.
## Output 32 min
